- Target Entity: RIPK1 (recombinant GST-RIPK1 kinase domain, residues 1-327) (Homo sapiens (Human), UniProt Q13546)
- Sequence (Q13546 1-327): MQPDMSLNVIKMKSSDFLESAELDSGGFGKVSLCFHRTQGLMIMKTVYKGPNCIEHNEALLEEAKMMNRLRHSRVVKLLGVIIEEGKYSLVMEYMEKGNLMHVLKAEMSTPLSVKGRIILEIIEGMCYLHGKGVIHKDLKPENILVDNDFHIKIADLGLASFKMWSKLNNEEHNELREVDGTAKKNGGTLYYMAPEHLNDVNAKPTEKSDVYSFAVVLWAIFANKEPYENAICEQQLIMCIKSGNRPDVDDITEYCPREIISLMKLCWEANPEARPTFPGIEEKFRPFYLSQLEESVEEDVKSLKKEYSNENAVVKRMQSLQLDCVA
- Assay Explanation: RIPK1-ADP-Glo Enzymatic Assay
- Type: biochemical
- Particulars: ADP-Glo; 25 nM GST-RIPK1, 300 μM ATP; assay lower limit ~25 nM; read-out: RIPK1 V0 Ec50
pEC50: −log10 of the molar value.
Measurement Label: pEC50

O=C1N2[C@@H](CC[C@H]2c2ccccc2)OC12CCN(c1ccc(-c3cc4n(n3)CCC4)c3ncnn13)CC2 ... > 7.60
Cc1ccc(F)c(C(=O)N2CCC3(CC2)O[C@@H]2CC[C@@H](c4cc(F)cc(F)c4)N2C3=O)c1 ... > 7.60
O=C(c1ccoc1)N1CCC2(CC1)O[C@@H]1CC[C@@H](c3cc(F)cc(F)c3)N1C2=O ... > 7.60

* * *

- Target Entity: RIPK1 (recombinant GST-RIPK1 kinase domain, residues 1-327) (Homo sapiens (Human), UniProt Q13546)
- Assay Explanation: RIPK1-ADP-Glo Enzymatic Assay
- Assay type: biochemical
- Particulars: ADP-Glo; 25 nM GST-RIPK1, 300 μM ATP; assay lower limit ~25 nM; read-out: RIPK1 V0 Ec50
Measurement Label: EC50 (nM)

O=C(c1ccccc1)N1CC2(C1)S[C@@H]1CC[C@@H](c3cc(F)cc(F)c3)N1C2=O [Example 1.25] ... 98.3
Cc1nc(N2CCC3(CC2)O[C@@H]2CC[C@@H](c4ccccc4)N2C3=O)ncc1-c1ncn(C)n1 [Example 21.4] ... 117
Cc1c(Br)ccnc1C(=O)N1CCC2(CC1)O[C@@H]1CC[C@@H](c3cc(F)cc(F)c3)N1C2=O [Example 6.80] ... 153
O=C(c1ccnnc1)N1CCC2(CC1)O[C@@H]1CC[C@@H](c3cc(F)cc(F)c3)N1C2=O [Example 6.99] ... 146

* * *

- Target Entity: RIPK1 (recombinant GST-RIPK1 kinase domain, residues 1-327) (Homo sapiens (Human))
- Assay Explanation: RIPK1-ADP-Glo Enzymatic Assay
- Assay type: biochemical
- Particulars: ADP-Glo; 25 nM GST-RIPK1, 300 μM ATP; assay lower limit ~25 nM; read-out: RIPK1 V0 Ec50
pEC50: −log10 of the molar value.
Measurement Label: pEC50

O=C(c1cccc(N2CCCC2=O)c1)N1CCC2(CC1)O[C@@H]1CC[C@@H](c3cc(F)cc(F)c3)N1C2=O [Example 6.56] ... > 7.60
Cc1nc(N2CCC3(CC2)OC2CCC(c4cnccn4)N2C3=O)ccc1C#N (stereo not drawn) [Example 4.142] ... > 7.60
N#Cc1ccc(N2CCC3(CC2)O[C@@H]2CC[C@@H](c4ccccc4)N2C3=O)n2ncnc12 [Example 4.261] ... > 7.60

* * *

- Target Entity: RIPK1 (recombinant GST-RIPK1 kinase domain, residues 1-327) (Homo sapiens (Human), UniProt Q13546)
- Assay Explanation: RIPK1-ADP-Glo Enzymatic Assay
- Assay type: biochemical
- Particulars: ADP-Glo; 25 nM GST-RIPK1, 300 μM ATP; assay lower limit ~25 nM; read-out: RIPK1 V0 Ec50
pEC50: −log10 of the molar value. Where a name gives a salt, the structure may show the parent alone.
Measurement Label: pEC50

COc1ccc2oc(N3CCC4(CC3)O[C@@H]3CC[C@@H](c5ccccc5)N3C4=O)nc2c1 ... 7.11
O=C1N2[C@@H](CC[C@H]2c2cc(F)cc(F)c2)OC12CCN(c1ccc(OCC(F)F)c3ccnn13)CC2 [Example 19.4, TFA salt] ... 7.49
O=C(c1ccccc1)N1C2CCC1CC1(C2)O[C@@H]2CC[C@@H](c3cc(F)cc(F)c3)N2C1=O (stereo partly shown) ... 7.03
N#Cc1cccc(C(=O)N2CCC3(CC2)O[C@@H]2CC[C@@H](c4cc(F)cc(F)c4)N2C3=O)c1F ... 7.40
O=C(c1ccc(C(F)F)nc1)N1CCC2(CC1)O[C@@H]1CC[C@@H](c3cc(F)cc(F)c3)N1C2=O ... 6.51

// data source = patent US12180226B2
